Entries and their inhibition
- system name: UniProt P34972
- measurement protocol: Antagonist activity at CB2 receptor (unknown origin) expressed in CHO cells assessed as inhibition of CP55940-induced calcium mobilization at 10 uM preincubated for 10 mins followed by CP55940-induction by fluo-4 AM dye-based fluorescence assay relative to SR141716A
- Format: functional, cell-based

- molecule: "CC(C)c1cc(Nc2cccc(Cl)c2)nnc1C(=O)NC1C2CC3CC(C2)CC1C3 (configuration not stated)"
  inhibition [%]: 44.3
- molecule: "CCCCNc1cc(C(C)C)c(C(=O)NC2CCCCC2)nn1"
  inhibition [%]: 50.6
- molecule: "CC(C)c1cc(N2CCN(C)CC2)nnc1C(=O)NC1C2CC3CC(C2)CC1C3 (configuration not stated)"
  inhibition [%]: 10.1
- molecule: "CC(C)c1cc(C(=O)NC2C3CC4CC(C3)CC2C4)nnc1Nc1cccc(Cl)c1 (configuration not stated)"
  inhibition [%]: 19.4
- molecule: "O=C(NC12CC3CC(CC(C3)C1)C2)c1ccc(N2CCOCC2)nn1"
  inhibition [%]: 25.8
- molecule: "O=C(NC1CCCCC1)c1ccc(N2CCOCC2)nn1"
  inhibition [%]: 16.3
- molecule: "CCC(CC)Nc1nnc(C(=O)NC2C3CC4CC(C3)CC2C4)cc1C(C)C (configuration not stated)"
  inhibition [%]: 0.214

###

- system name: Cannabinoid receptor 2 (Homo sapiens, UniProt P34972)
- Sequence (P34972 whole entry): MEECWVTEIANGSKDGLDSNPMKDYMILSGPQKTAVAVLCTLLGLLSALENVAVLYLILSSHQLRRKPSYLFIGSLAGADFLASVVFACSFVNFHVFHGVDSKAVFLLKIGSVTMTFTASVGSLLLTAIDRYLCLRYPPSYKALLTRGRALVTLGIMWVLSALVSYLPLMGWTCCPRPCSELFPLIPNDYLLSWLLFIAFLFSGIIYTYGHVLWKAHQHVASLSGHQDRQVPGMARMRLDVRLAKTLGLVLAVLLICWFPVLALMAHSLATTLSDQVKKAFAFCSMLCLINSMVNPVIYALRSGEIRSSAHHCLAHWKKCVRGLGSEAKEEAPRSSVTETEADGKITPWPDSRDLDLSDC
- measurement protocol: Agonist activity at CB2 receptor (unknown origin) expressed in CHO cells assessed as induction of calcium mobilization by fluo-4 AM dye-based fluorescence assay relative to CP55940
- Assay type: functional, cell-based
measurement type: Emax (%)

- molecule: "CC(C)c1cc(NC2CCCC2)nnc1C(=O)NC1CCCCC1"
  unit annotation: "%"
  endpoint result: 78
- molecule: "CC(C)c1cc(N2CCCCC2)nnc1C(=O)NC1C2CC3CC(C2)CC1C3 (configuration not stated)"
  unit annotation: "%"
  endpoint result: 140
- molecule: "CC(C)c1cc(NCCO)nnc1C(=O)NC12CC3CC(CC(C3)C1)C2"
  unit annotation: "%"
  endpoint result: 114
- molecule: "CC(C)c1cc(C(=O)NC2CCCCC2)nnc1N1CCOCC1"
  unit annotation: "%"
  endpoint result: 99
- molecule: "CC(C)c1cc(C(=O)NC2C3CC4CC(C3)CC2C4)nnc1N1CCOCC1 (configuration not stated)"
  unit annotation: "%"
  endpoint result: 105
- molecule: "CCCCNc1cc(C(C)C)c(C(=O)NC23CC4CC(CC(C4)C2)C3)nn1"
  unit annotation: "%"
  endpoint result: 76
- molecule: "CC(C)c1cc(NCC2CC2)nnc1C(=O)NC1C2CC3CC(C2)CC1C3 (configuration not stated)"
  unit annotation: "%"
  endpoint result: 135
- molecule: "CC(C)c1cc(C(=O)NC2C3CC4CC(C3)CC2C4)nnc1NCC1CC1 (configuration not stated)"
  unit annotation: "%"
  endpoint result: 109
- molecule: "O=C(NC1C2CC3CC(C2)CC1C3)c1ccc(N2CCOCC2)nn1 (configuration not stated)"
  unit annotation: "%"
  endpoint result: 79
- molecule: "CC(C)c1cc(NC2CCCC2)nnc1C(=O)NC1C2CC3CC(C2)CC1C3 (configuration not stated)"
  unit annotation: "%"
  endpoint result: 107
- molecule: "CC(C)c1cc(NCCO)nnc1C(=O)NC1C2CC3CC(C2)CC1C3 (configuration not stated)"
  unit annotation: "%"
  endpoint result: 94
- molecule: "CC(C)c1cc(C(=O)NC23CC4CC(CC(C4)C2)C3)nnc1N1CCOCC1"
  unit annotation: "%"
  endpoint result: 125
- molecule: "CC(C)c1cc(C(=O)NC2C3CC4CC(C3)CC2C4)nnc1NC1CCCCC1 (configuration not stated)"
  unit annotation: "%"
  endpoint result: 91
- molecule: "CC(C)c1cc(NC2CC2)nnc1C(=O)NC1C2CC3CC(C2)CC1C3 (configuration not stated)"
  unit annotation: "%"
  endpoint result: 117
- molecule: "CC(C)c1cc(C(=O)NC2C3CC4CC(C3)CC2C4)nnc1NC1CCCC1 (configuration not stated)"
  unit annotation: "%"
  endpoint result: 114
- molecule: "CC(C)c1cc(NCCO)nnc1C(=O)NC1CCCCC1"
  unit annotation: "%"
  endpoint result: 81
- molecule: "CC(C)c1cc(NC2CCCCC2)nnc1C(=O)NC1C2CC3CC(C2)CC1C3 (configuration not stated)"
  unit annotation: "%"
  endpoint result: 81

###

- Species: Homo sapiens
- measurement protocol: Selectivity index, ratio of EC50 for CB1 receptor (unknown origin) to EC50 for CB2 receptor (unknown origin)
Entries and their Ratio EC50

- compound: "CC(C)c1cc(Nc2cccc(Cl)c2)nnc1C(=O)NC1C2CC3CC(C2)CC1C3 (configuration not stated)"
  Ratio EC50: "> 1"
- compound: "O=C(NC1C2CC3CC(C2)CC1C3)c1ccc(N2CCOCC2)nn1 (configuration not stated)"
  Ratio EC50: "> 1"
- compound: "CC(C)c1cc(C(=O)NC2C3CC4CC(C3)CC2C4)nnc1NC1CCCCC1 (configuration not stated)"
  Ratio EC50: "> 50"
- compound: "CC(C)c1cc(N2CCOCC2)nnc1C(=O)NC12CC3CC(CC(C3)C1)C2"
  Ratio EC50: "> 25"
- compound: "CC(C)c1cc(C(=O)NC2C3CC4CC(C3)CC2C4)nnc1NCCO (configuration not stated)"
  Ratio EC50: "> 100"
- compound: "O=C(NCC1CCOCC1)c1cnc(Nc2ccc(Cl)cc2Cl)nc1C(F)(F)F [GW842166X]"
  Ratio EC50: "> 29"
- compound: "CC(C)c1cc(N2CCCCC2)nnc1C(=O)NC1C2CC3CC(C2)CC1C3 (configuration not stated)"
  Ratio EC50: "> 553"
- compound: "CC(C)c1cc(C(=O)NC2C3CC4CC(C3)CC2C4)nnc1NCC1CC1 (configuration not stated)"
  Ratio EC50: 36
- compound: "CC(C)c1cc(C(=O)NC2C3CC4CC(C3)CC2C4)nnc1NC1CCCC1 (configuration not stated)"
  Ratio EC50: "> 291"
- compound: "CC(C)c1cc(NCCO)nnc1C(=O)NC1C2CC3CC(C2)CC1C3 (configuration not stated)"
  Ratio EC50: "> 2020"
- compound: "CC(C)c1cc(C(=O)NC2C3CC4CC(C3)CC2C4)nnc1N1CCOCC1 (configuration not stated)"
  Ratio EC50: "> 25"
- compound: "CCCCNc1cc(C(C)C)c(C(=O)NC23CC4CC(CC(C4)C2)C3)nn1"
  Ratio EC50: "> 63"
- compound: "CC(C)c1cc(NC2CCCCC2)nnc1C(=O)NC1C2CC3CC(C2)CC1C3 (configuration not stated)"
  Ratio EC50: "> 25"
- compound: "CC(C)c1cc(NCCO)nnc1C(=O)NC12CC3CC(CC(C3)C1)C2"
  Ratio EC50: "> 235"
- compound: "CC(C)c1cc(NCC2CC2)nnc1C(=O)NC1C2CC3CC(C2)CC1C3 (configuration not stated)"
  Ratio EC50: "> 210"
- compound: "CC(C)c1cc(NCCO)nnc1C(=O)NC1CCCCC1"
  Ratio EC50: "> 12"
- compound: "CC(C)c1cc(NC2CC2)nnc1C(=O)NC1C2CC3CC(C2)CC1C3 (configuration not stated)"
  Ratio EC50: "> 584"
- compound: "CC(C)c1cc(N2CCOCC2)nnc1C(=O)NC1C2CC3CC(C2)CC1C3 (configuration not stated)"
  Ratio EC50: "> 2730"
- compound: "CC(C)c1cc(N2CCOCC2)nnc1C(=O)NC1CCCCC1"
  Ratio EC50: "> 17"
- compound: "CC(C)c1cc(NC2CCCC2)nnc1C(=O)NC1CCCCC1"
  Ratio EC50: "> 30"
- compound: "CC(C)c1cc(C(=O)NC2C3CC4CC(C3)CC2C4)nnc1N1CCCCC1 (configuration not stated)"
  Ratio EC50: "> 3"
- compound: "CCCCNc1nnc(C(=O)NC2C3CC4CC(C3)CC2C4)cc1C(C)C (configuration not stated)"
  Ratio EC50: 27

###

- system name: Cannabinoid receptor 1 (Homo sapiens, UniProt P21554)
- Sequence (P21554 whole entry): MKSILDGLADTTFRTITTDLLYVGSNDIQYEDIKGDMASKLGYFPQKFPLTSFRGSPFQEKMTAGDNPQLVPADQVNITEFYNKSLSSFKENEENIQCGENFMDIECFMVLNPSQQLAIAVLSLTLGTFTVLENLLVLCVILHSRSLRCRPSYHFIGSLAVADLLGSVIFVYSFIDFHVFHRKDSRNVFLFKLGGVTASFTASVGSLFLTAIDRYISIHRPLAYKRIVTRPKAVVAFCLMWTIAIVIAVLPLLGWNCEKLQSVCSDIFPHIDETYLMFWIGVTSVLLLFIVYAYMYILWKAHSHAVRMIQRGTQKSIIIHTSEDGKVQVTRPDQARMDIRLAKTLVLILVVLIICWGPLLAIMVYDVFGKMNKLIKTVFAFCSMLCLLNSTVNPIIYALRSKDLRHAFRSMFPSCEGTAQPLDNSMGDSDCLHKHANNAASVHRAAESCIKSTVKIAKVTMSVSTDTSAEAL
- measurement protocol: Antagonist activity at CB1 receptor (unknown origin) expressed in CHO cells assessed as inhibition of CP55940-induced calcium mobilization at 10 uM preincubated for 10 mins followed by CP55940-induction by fluo-4 AM dye-based fluorescence assay relative to SR141716A
- Format: functional, cell-based
measurement type: inhibition (%)

- compound: "CC(C)c1cc(C(=O)NC2CCCCC2)nnc1N1CCOCC1"
  system name: "Cannabinoid receptor 1 (Homo sapiens, UniProt P21554)"
  measurement type: "inhibition"
  endpoint result: -8.12
- compound: "CC(C)c1cc(NC(C)C(C)C)nnc1C(=O)NC1C2CC3CC(C2)CC1C3 (stereo not given)"
  system name: "Cannabinoid receptor 1 (Homo sapiens, UniProt P21554)"
  measurement type: "inhibition"
  endpoint result: 7.68
- compound: "CC(C)c1cc(C(=O)NC2C3CC4CC(C3)CC2C4)nnc1NC1CCCCC1 (stereo not given)"
  system name: "Cannabinoid receptor 1 (Homo sapiens, UniProt P21554)"
  measurement type: "inhibition"
  endpoint result: 39.3
- compound: "CC(C)c1cc(C(=O)NC2C3CC4CC(C3)CC2C4)nnc1NCCO (stereo not given)"
  system name: "Cannabinoid receptor 1 (Homo sapiens, UniProt P21554)"
  measurement type: "inhibition"
  endpoint result: 1.87
- compound: "CC(C)c1cc(N2CCOCC2)nnc1C(=O)NC1CCCCC1"
  system name: "Cannabinoid receptor 1 (Homo sapiens, UniProt P21554)"
  measurement type: "inhibition"
  endpoint result: -9.42
- compound: "CC(C)c1cc(NCCO)nnc1C(=O)NC1C2CC3CC(C2)CC1C3 (stereo not given)"
  system name: "Cannabinoid receptor 1 (Homo sapiens, UniProt P21554)"
  measurement type: "inhibition"
  endpoint result: -8.39
- compound: "CC(C)c1cc(C(=O)NC2C3CC4CC(C3)CC2C4)nnc1Nc1cccc(Cl)c1 (stereo not given)"
  system name: "Cannabinoid receptor 1 (Homo sapiens, UniProt P21554)"
  measurement type: "inhibition"
  endpoint result: 5.1
- compound: "CC(C)c1cc(NCC2CC2)nnc1C(=O)NC1C2CC3CC(C2)CC1C3 (stereo not given)"
  system name: "Cannabinoid receptor 1 (Homo sapiens, UniProt P21554)"
  measurement type: "inhibition"
  endpoint result: 22.1
- compound: "CC(C)c1cc(N2CCN(C)CC2)nnc1C(=O)NC1C2CC3CC(C2)CC1C3 (stereo not given)"
  system name: "Cannabinoid receptor 1 (Homo sapiens, UniProt P21554)"
  measurement type: "inhibition"
  endpoint result: 37.3
- compound: "O=C(NC1C2CC3CC(C2)CC1C3)c1ccc(N2CCOCC2)nn1 (stereo not given)"
  system name: "Cannabinoid receptor 1 (Homo sapiens, UniProt P21554)"
  measurement type: "inhibition"
  endpoint result: 17.7
- compound: "CCC(CC)Nc1nnc(C(=O)NC2C3CC4CC(C3)CC2C4)cc1C(C)C (stereo not given)"
  system name: "Cannabinoid receptor 1 (Homo sapiens, UniProt P21554)"
  measurement type: "inhibition"
  endpoint result: 4.48
- compound: "CC(C)c1cc(C(=O)NC2C3CC4CC(C3)CC2C4)nnc1N1CCCCC1 (stereo not given)"
  system name: "Cannabinoid receptor 1 (Homo sapiens, UniProt P21554)"
  measurement type: "inhibition"
  endpoint result: -3.84
- compound: "CC(C)c1cc(NC2CCCC2)nnc1C(=O)NC12CC3CC(CC(C3)C1)C2"
  system name: "Cannabinoid receptor 1 (Homo sapiens, UniProt P21554)"
  measurement type: "inhibition"
  endpoint result: 44.5
- compound: "CC(C)c1cc(C(=O)NC2C3CC4CC(C3)CC2C4)nnc1NC1CCCC1 (stereo not given)"
  system name: "Cannabinoid receptor 1 (Homo sapiens, UniProt P21554)"
  measurement type: "inhibition"
  endpoint result: 24.1
- compound: "CC(C)c1cc(NC2CCCC2)nnc1C(=O)NC1C2CC3CC(C2)CC1C3 (stereo not given)"
  system name: "Cannabinoid receptor 1 (Homo sapiens, UniProt P21554)"
  measurement type: "inhibition"
  endpoint result: 38.2
- compound: "CCCCNc1cc(C(C)C)c(C(=O)NC2CCCCC2)nn1"
  system name: "Cannabinoid receptor 1 (Homo sapiens, UniProt P21554)"
  measurement type: "inhibition"
  endpoint result: 47.9
- compound: "CC(C)c1cc(C(=O)NC2C3CC4CC(C3)CC2C4)nnc1N1CCOCC1 (stereo not given)"
  system name: "Cannabinoid receptor 1 (Homo sapiens, UniProt P21554)"
  measurement type: "inhibition"
  endpoint result: 1.8
- compound: "CC(C)c1cc(N2CCCCC2)nnc1C(=O)NC1C2CC3CC(C2)CC1C3 (stereo not given)"
  system name: "Cannabinoid receptor 1 (Homo sapiens, UniProt P21554)"
  measurement type: "inhibition"
  endpoint result: 44.1
- compound: "CC(C)c1cc(N2CCOCC2)nnc1C(=O)NC12CC3CC(CC(C3)C1)C2"
  system name: "Cannabinoid receptor 1 (Homo sapiens, UniProt P21554)"
  measurement type: "inhibition"
  endpoint result: 16.9
- compound: "O=C(NCC1CCOCC1)c1cnc(Nc2ccc(Cl)cc2Cl)nc1C(F)(F)F [GW842166X]"
  system name: "Cannabinoid receptor 1 (Homo sapiens, UniProt P21554)"
  measurement type: "inhibition"
  endpoint result: 11.8
